Origin of the recorded values: the supplement of paper PMC10567573

For each record, write down the corresponding protein stability index.
B1: ZNF8 (parent)
chain: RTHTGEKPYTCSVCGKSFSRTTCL

variants of: B1; test: protein stability index of a GFP-peptide fusion (GPS, HEK-293T) (PSI 1-6); higher = more stable; conditions: c terminus: a fixed tail appended;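 also: lentivirally expressed fusions sorted by FACS into six bins by GFP to DsRed ratio, PSI derived from sequencing read proportions per bin multiplied by bin number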
Answers are plain numbers.

sequence variant	measure	reported
Y9E	protein stability index	2.95
V13C	protein stability index	3.54

Then this variant:
Challenge: Which protein stability index value belongs to Y9M ?
Response given: 2.23
